// values below are reported log10(Ki)
Protein target, amino acids: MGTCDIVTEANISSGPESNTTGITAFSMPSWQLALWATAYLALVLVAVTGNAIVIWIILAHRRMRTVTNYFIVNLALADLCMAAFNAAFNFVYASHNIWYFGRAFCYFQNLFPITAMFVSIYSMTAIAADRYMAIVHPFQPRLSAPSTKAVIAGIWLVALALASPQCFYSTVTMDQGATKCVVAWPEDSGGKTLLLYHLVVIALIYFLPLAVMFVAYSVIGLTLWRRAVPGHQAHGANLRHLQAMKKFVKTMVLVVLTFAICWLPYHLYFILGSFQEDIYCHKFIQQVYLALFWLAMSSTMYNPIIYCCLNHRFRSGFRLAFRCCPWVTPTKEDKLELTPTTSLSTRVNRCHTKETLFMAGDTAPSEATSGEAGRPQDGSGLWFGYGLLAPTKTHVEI
Annotation: log10 of Ki, nM basis.

Answered examples (5):
[[record]]
compound = "CO/N=C(\\COCc1cc(C(F)(F)F)cc(C(F)(F)F)c1)C(CCN1CCN(C2CCCCC2)CC1)c1ccc(Cl)c(Cl)c1 (stereo not given)"
value = 2.11

[[record]]
compound = "CO/N=C(\\COCc1cc(C(F)(F)F)cc(C(F)(F)F)c1)C(CCN1CCN(CC(=O)NC2CC2)CC1)c1ccc(Cl)c(Cl)c1 (stereo not given)"
value = 2.41

[[record]]
compound = "CO/N=C(\\COCc1cc(C(F)(F)F)cc(C(F)(F)F)c1)C(CCN1CCN(CC(=O)N2CCc3ccccc3C2)CC1)c1ccc(Cl)c(Cl)c1 (stereo not given)"
value = 2.75

[[record]]
compound = "CO/N=C(\\COCc1cc(C(F)(F)F)cc(C(F)(F)F)c1)C(CCN1CCN(c2ccccc2)CC1)c1ccc(Cl)c(Cl)c1 (stereo not given)"
value = 2.99

[[record]]
compound = "CO/N=C(\\COCc1cc(C(F)(F)F)cc(C(F)(F)F)c1)C(CCN1CCN(CC(=O)N2CCC[C@H]2C(N)=O)CC1)c1ccc(Cl)c(Cl)c1 (stereo not given in full)"
value = 1.41


Query CO/N=C(\COCc1cc(C(F)(F)F)cc(C(F)(F)F)c1)C(CCN1CCN(CC(=O)N2CCCCC2CO)CC1)c1ccc(Cl)c(Cl)c1 (stereo not given) yields log10(Ki) of 1.72

Record CCOC(=O)C1CCN(C(=O)CN2CCN(CCC(/C(COCc3cc(C(F)(F)F)cc(C(F)(F)F)c3)=N/OC)c3ccc(Cl)c(Cl)c3)CC2)CC1 (stereo not given) . Reported log10(Ki): 2.61

Given item CO/N=C(\COCc1cc(C(F)(F)F)cc(C(F)(F)F)c1)C(CCN1CCN(CC(=O)N2CC(O)C2)CC1)c1ccc(Cl)c(Cl)c1 (stereo not given) , the value recorded as its log10(Ki) is 1.49

log10(Ki) measured on CO/N=C(\COCc1cc(C(F)(F)F)cc(C(F)(F)F)c1)C(CCN1CCN(CC(=O)N2CCOCC2)CC1)c1ccc(Cl)c(Cl)c1 (stereo not given) = 1.45

// data source = ChEMBL document CHEMBL1132780
